# System: MDA-MB-231
# procedureText: MTT cell viability assay, MDA-MB-231
# Format: cell-based
# conditionInfo: Homo sapiens, MDA-MB-231 cells, 72 H, average of at least two independent experiments
valueType: IC50

molecule: O=C1C2CN(Cc3cccc(F)c3)CCN2CCN1Cc1cccc(Cl)c1 (stereo not drawn) [Compound 4]
IC50: 450 nM
--
molecule: O=C1C2CN(Cc3ccccc3)CCN2CCN1Cc1ccc(C(F)(F)F)cc1 (stereo not drawn) [Compound 10]
IC50: 635 nM

Proceed to the following item.
Look up IC50: O=C1C2CN(Cc3cccc(F)c3)CCN2CCN1Cc1ccc(F)cc1 (stereo not drawn) [Compound 5]
240 nM
